- target under test: Platelet glycoprotein IIb/IIIa (human, UniProt P08514 32-1039; P05106 27-788)
- experiment: cell-based or functional assay
Starred links: 1 amine or outer side, 2 acyl side, 3 side chain; linkers in the order of their positions; H or OH if unused. Positions of bridges follow the written chain, without caps; N, C: chain ends. Non-standard residues stand in square brackets, D forms with d. No end group written: not given here. Cys(β,β-pentamethylene) = O=C([C@@H](N[*:1])C1(S[*:3])CCCCC1)[*:2]; Cha = N[C@@H](CC1CCCCC1)C(=O)O; Pen = CC(C)(S)[C@H](N)C(=O)O; Orn = NCCC[C@H](N)C(=O)O
measured metric: IC50, ADP-Stimulated Aggregation

Here are 3 binders together with their reported answers.
{"binder": "G[Pen]GHRGDTRCA (disulfide 2-10) [G(Pen)GHRGDTRCA]", "IC50, ADP-Stimulated Aggregation": "11.3 µM"}
{"binder": "G[Pen]GRGDTPCA (disulfide 2-9) [G(Pen)GRGDTPCA]", "IC50, ADP-Stimulated Aggregation": "22.3 µM"}
{"binder": "XGHRGDLRXA (not fully specified; t-but-am-Pmp at 1; Pen at 9) [(t-but-am-Pmp)GHRGDLR(Pen)A]", "IC50, ADP-Stimulated Aggregation": "89 µM"}

Prompt: Value lookup for IC50, ADP-Stimulated Aggregation; key = R[Pen]GRGDLRCA (disulfide 2-9) [R(Pen)GRGDLRCA]
Completion: 16 µM

Prompt: Need IC50, ADP-Stimulated Aggregation of R[Pen]GRGDTPCA (disulfide 2-9) [R(Pen)GRGDTPCA] , thanks.
Completion: 7 µM

Prompt: Query (binder): R[Cys(β,β-pentamethylene)]GHRGDVRCR (disulfide 2-10; not fully specified; printed as R(Pmc)GHRGDVRCR) [R(Pmc)GHRGDVRCR] ; field requested: IC50, ADP-Stimulated Aggregation
Completion: 0.69 µM

Prompt: Look up IC50, ADP-Stimulated Aggregation: G[Pen]YRGDSPCA (disulfide 2-9) [G(Pen)YRGDSPCA]
Completion: 47 µM

Prompt: Need IC50, ADP-Stimulated Aggregation, item "LRGDSPDG"
Completion: 150 µM

Prompt: Query (binder): R[Cys(β,β-pentamethylene)]GHRGDFRCR (disulfide 2-10 (inferred)) [R(Pmc)GHRGDFRCR] ; field requested: IC50, ADP-Stimulated Aggregation
Completion: 0.62 µM

Prompt: Need IC50, ADP-Stimulated Aggregation of L[Pen]GHRGDLRCA (disulfide 2-10) [L(Pen)GHRGDLRCA] , thanks.
Completion: 10.5 µM

Prompt: So what does the record say about IC50, ADP-Stimulated Aggregation for R[Pen]GRGDSRCA (disulfide 2-9) [R(Pen)GRGDSRCA] ?
Completion: 12 µM

Prompt: For the binder shown here, R[Cys(β,β-pentamethylene)]RGD[Cha]CR (disulfide 2-7) [R(am-Pmp)RGD(Cha)CR] , give the reported IC50, ADP-Stimulated Aggregation.
Completion: < 200 µM

Prompt: Reported IC50, ADP-Stimulated Aggregation, binder G[Pen]LRGDSPCA (disulfide 2-9) [G(Pen)LRGDSPCA] : ____
Completion: 415 µM

Prompt: Dear colleague, I am looking for the recorded IC50, ADP-Stimulated Aggregation of the following binder: G[Pen]GRGDRPCA (disulfide 2-9) [G(Pen)GRGDRPCA]
Completion: 22.3 µM

Prompt: Name the reported IC50, ADP-Stimulated Aggregation value associated with the binder "FRGDSPDG"
Completion: 110 µM

Prompt: Value lookup for IC50, ADP-Stimulated Aggregation; key = [t‑butylAmino‑Pmp]GHRGDLRCA (disulfide 1-9; also: place of tert-butyl and chirality not given here) [(t-butylAmino-Pmp) GHRGDLRCA]
Completion: 130 µM

Prompt: Consider the binder G[Pen]LRGDTPCA (disulfide 2-9) [G(Pen)LRGDTPCA] and give its measured IC50, ADP-Stimulated Aggregation.
Completion: 86 µM

Prompt: Which IC50, ADP-Stimulated Aggregation value belongs to R[Orn]GHRGDLRDR [R(orn)GHRGDLRDR] ?
Completion: < 200 µM

Prompt: So what's the measured IC50, ADP-Stimulated Aggregation for this one? R[Pen]GHRGDTRCR (disulfide 2-10) [R(Pen)GHRGDTRCR]
Completion: 8.8 µM

Prompt: Request the reported IC50, ADP-Stimulated Aggregation associated with G[Pen]FRGDSFCA (disulfide 2-9) [G(Pen)FRGDSFCA]
Completion: < 200 µM

Prompt: Sample R[Cys(β,β-pentamethylene)]GHRGDYRCR (disulfide 2-10) [R(Pmc)GHRGDYRCR] — what was its IC50, ADP-Stimulated Aggregation?
Completion: 1 µM

Prompt: Could you share which IC50, ADP-Stimulated Aggregation value was measured for G[Pen]LRGDSRCA (disulfide 2-9) [G(Pen)LRGDSRCA] ?
Completion: 41 µM

Prompt: Quick check: IC50, ADP-Stimulated Aggregation of G[Pen]GRGDSFCA (disulfide 2-9) [G(Pen)GRGDSFCA] ?
Completion: 115 µM

Prompt: Item "VRGDSPDG" has what recorded IC50, ADP-Stimulated Aggregation?
Completion: 92 µM
